B1: TPR t1 (parent)
chain: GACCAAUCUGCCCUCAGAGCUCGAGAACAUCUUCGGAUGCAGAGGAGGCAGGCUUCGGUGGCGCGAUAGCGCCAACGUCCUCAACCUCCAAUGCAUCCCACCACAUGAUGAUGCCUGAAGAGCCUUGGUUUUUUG

Variants of: B1
Assay: polymerase ribozyme fitness, log enrichment relative to wild type (log ratio); higher = more active; in vitro selection for triplet polymerase activity
I'd appreciate it if you could supply polymerase ribozyme fitness (log ratio) values for the items below.
Number only, please.

Given C8U U14G G45A G69A , state its recorded polymerase ribozyme fitness (log ratio). -2.72

Given C49U C53U C72G C114U , state its recorded polymerase ribozyme fitness (log ratio). -3.44

Given A2C C13G G36A G63A , state its recorded polymerase ribozyme fitness (log ratio). -5.73

Given G57A C72U G127U , state its recorded polymerase ribozyme fitness (log ratio). -2.52
